measuredTarget: TDG (thymine DNA glycosylase) (human, UniProt Q13569 1-410)
Sequence (Q13569 whole entry): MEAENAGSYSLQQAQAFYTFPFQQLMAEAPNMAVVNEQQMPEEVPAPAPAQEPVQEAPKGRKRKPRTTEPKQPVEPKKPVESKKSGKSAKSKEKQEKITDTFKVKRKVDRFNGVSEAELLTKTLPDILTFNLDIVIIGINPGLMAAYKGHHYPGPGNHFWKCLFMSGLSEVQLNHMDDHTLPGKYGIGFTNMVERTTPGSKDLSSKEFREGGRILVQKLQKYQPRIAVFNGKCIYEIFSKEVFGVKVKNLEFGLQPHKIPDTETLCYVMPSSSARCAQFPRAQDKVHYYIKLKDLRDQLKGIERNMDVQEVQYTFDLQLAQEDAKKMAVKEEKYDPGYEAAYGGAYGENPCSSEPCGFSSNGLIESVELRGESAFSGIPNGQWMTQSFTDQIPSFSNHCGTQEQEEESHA
assayName: EMSA; Hill 2.3; EMSA: 5 nM substrate, 100 mM NaCl, 2.5 mM MgCl2, 10 mM Tris-HCl pH 7.5, 5% glycerol, 30 min 30 C, 0.6% agarose 1x TBE 4 C; NMR: 0.1 M NaCl, 0.03 mM TCEP, 15 mM
runParameters: protein: recombinant; tags: His tag (pET28a, TALON purified); label: 5'-FAM strand 1; blunt
quantityMeasured: pKd
pKd (log units): -log10 of the concentration in mol/L.

Could you share which pKd value was measured for D1-C (dsDNA) DNA 1: TGAGGATGTATATATCTGACGCGCCGGTGGAGC DNA 2: GCTCCACCGGCGCGTACGATATATACATCCTCA ?
7.37

# credit: paper PMC13022674
